Each item that follows carries a reported abundance fitness.
B1: Arginine-glutamic acid dipeptide repeats protein, residues 502 to 543; numbered along this chain, Q9P2R6 (parent)
chain: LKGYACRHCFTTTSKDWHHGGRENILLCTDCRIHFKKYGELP

Variants of: B1
Assay: abundance fitness (aPCA) (normalised: wild type 0, dead -1); higher = more abundant; growth selection in yeast, the domain comes from the species named
Conditions: Homo sapiens
measurement_name: abundance fitness

monomer_sequence="LKGYACRHCFTTTSKDWHDGGRENILLCTDCRIHFKKYGELP [H19D]" observed_measurement=-0.225
monomer_sequence="LKGYACRHCFTTTSKDWHHGGRENILLCTDCRIHFGKYGELP [K36G]" observed_measurement=0.079
monomer_sequence="LKGYACRHCFTTTSKDWHHGGRENILHCTDCRIHFKKYGELP [L27H]" observed_measurement=-0.086
monomer_sequence="LKGYACRHCFTTTSKDWHHGGRENILLETDCRIHFKKYGELP [C28E]" observed_measurement=-0.685
monomer_sequence="LKGYACRHCFTTTSKDWHHGGRENIQLCTDCRIHFKKYGELP [L26Q]" observed_measurement=-0.376
monomer_sequence="LKGYACRHCFTTTSKDWHHGGRENILLCTDCRAHFKKYGELP [I33A]" observed_measurement=0.079
monomer_sequence="LKGYACRHCFRTTSKDWHHGGRENILLCTDCRIHFKKYGELP [T11R]" observed_measurement=-0.236
monomer_sequence="LKGYACRHCFTTTSKDWHHGGRENILLCTDCRIHFKKRGELP [Y38R]" observed_measurement=-0.084
monomer_sequence="LKGYACRHCFTTTSKDWHHGGRENILLCTDCRIHFKKYTELP [G39T]" observed_measurement=-0.291
monomer_sequence="LKGYACRHCFTTTSKDWHHGGRENILLCTDCRIHFKKAGELP [Y38A]" observed_measurement=-0.077
monomer_sequence="LKGYACRHCFTTTSKRWHHGGRENILLCTDCRIHFKKYGELP [D16R]" observed_measurement=-0.451
